Here the recorded ΔTm at 50 µM is given for each entry.
Target: human STING (Homo sapiens, UniProt Q86WV6)
Sequence (Q86WV6 whole entry H232R): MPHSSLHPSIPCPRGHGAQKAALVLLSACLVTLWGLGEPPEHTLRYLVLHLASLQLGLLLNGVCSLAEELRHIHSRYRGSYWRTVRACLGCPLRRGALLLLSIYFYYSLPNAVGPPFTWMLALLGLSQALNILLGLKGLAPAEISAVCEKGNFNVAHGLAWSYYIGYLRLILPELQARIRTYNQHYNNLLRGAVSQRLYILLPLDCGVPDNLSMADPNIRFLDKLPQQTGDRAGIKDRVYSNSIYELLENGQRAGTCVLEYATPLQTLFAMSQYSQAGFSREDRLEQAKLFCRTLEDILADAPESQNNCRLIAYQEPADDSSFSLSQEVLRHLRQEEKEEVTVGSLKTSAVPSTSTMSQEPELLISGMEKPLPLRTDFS
Test: Fluorescence Thermal Shift assay
Assay type: binding
Settings: 50 μM compound; STING 0.1 mg/ml; 20 minutes preincubation; read-out: [hSTING] FTS, ΔTm [° C.] for 50 μM
Procedure: Fluorescence Thermal Shift Assay Compounds of the present invention were tested for binding to human STING in Fluorescence Thermal Shift assay. STING was preincubated with the compounds for 20 minutes in 50 mM Hepes, 150 mM NaCl, pH 7.5 in 16 μl volume, following by adding 4 μl of SyproOrange dye dilution (ThermoFisher, cat no. S-6651). Final STING concentration was 0.1 mg/ml. […] The data were analyzed using Protein Thermal Shift Software (ThermoFisher). […]
RECORDED_METRIC: ΔTm at 50 µM

1. Cc1oc2cc(Br)c(F)cc2c(=O)c1CN(CCCc1cccnc1)Cc1ccncc1 [Example 63]	> 2.5 °C
2. COc1cc(CN(CCCn2ccnc2)Cc2cn(C)c3ccccc3c2=O)ccn1 [Example 44]	< 2.5 °C
3. Cc1ccc2c(=O)c(CN(CCCn3cccc3)Cc3ccncc3)coc2c1C [Example 15]	< 2.5 °C
4. COc1cc(CN(CCCn2cnc3cncnc32)Cc2c(C)oc3cc(Br)c(F)cc3c2=O)ccn1 [Example 78]	> 2.5 °C
5. O=c1c(CN(CCCn2ccnc2)Cc2ccncc2)coc2cc(F)ccc12 [Example 11]	< 2.5 °C

src = patent US12162863B2
